# Test system: HEK-293T
# ASSAY_DETAILS: Multiplex assay against HEK293T
# Assay type: toxicity, cell-based
# CONDITIONS: human, 12 h, 10 µM, compound concentration 10 uM, replicate 1
Could you please mark true for values of Population Pyknosed Nuclei (%) below 20% and false for values at or above it?

Quick check: does Br.CS(=O)(=O)Nc1c(O)ccc2c1CCCC2C1=NCCN1 (stereo not drawn) have Population Pyknosed Nuclei (%) under 20%?
true

N#Cc1cc(F)cc(-c2nc(-c3ccc(F)cn3)no2)c1 , same question.
true

Cc1cccc(NC(=O)CN2CCC(c3ccccn3)CC2)c1.Cl.Cl , same question.
false

CC(C)c1noc(N2CCC(COc3ccc(-c4ccc(S(C)(=O)=O)cc4)nc3)CC2)n1 , same question.
false

Cc1c(CC(=O)O)c2cccnc2n1Cc1ccc(S(C)(=O)=O)cc1C(F)(F)F , same question.
true

Cc1cnc(-c2cc(N3CCN(C(=O)CCS(C)(=O)=O)CC3)ncc2Cl)c(C)c1 , same question.
true

CCc1cc2cc(NS(=O)(=O)c3ccc(C#N)cc3)ccc2n(CC)c1=O , same question.
true

CN(C)C(=O)Cn1cc(-c2ccc(-c3cncc4ccccc34)cc2)cn1 , same question.
true

CC(=O)Nc1cccc2c1c(Sc1ccc(Cl)cc1)c(C)n2CC(=O)O , same question.
true

Cc1onc(-c2ccccc2Cl)c1C(=O)N(C)c1ccc(Cl)cc1 , same question.
true

Cl.NCCc1ccc(O)c(O)c1 [DOPAMINE HYDROCHLORIDE] , same question.
true

COc1ccccc1N1CCN(C[C@@H](C(=O)NC(C)(C)C)c2ccccc2)CC1.Cl.Cl , same question.
false

O=C(CCCc1ccccc1)Nc1nc2ccccc2c(=O)s1 , same question.
true

N#Cc1c(Oc2cccc(OS(=O)(=O)CCCC(F)(F)F)c2)cccc1C(F)(F)F , same question.
false

C[C@H](N)COC(=O)[C@@H](CCCCN)NC(=O)Cc1c(-c2ccc3ccccc3c2)[nH]c2c1ccc1ccccc12 , same question.
true
